Test system: MAb 4063-21-1 (ECACC 8808/2501)
Assay: two-step competitive ELISA (BSA-conjugated hapten on plate), anti-atrazine MAb
Type: binding, Maus
Details: inhibitor concentration for 50 % inhibition in competitive ELISA
Parameter: I 50 ng/ml (a). Scope: all listed entries.
Provide only the numeric value, understood in ng/mL.

Recorded I 50 ng/ml (a), per entry:
> print(dat)
                                   compound  observed.value
1                   CCNc1nc(NC(C)C)nc(OC)n1               7
2  CCNc1nc(O)nc(NCC)n1 [OH-Simazin, Hydroxysimazin]             180
3  CCNc1nc(O)nc(NC(C)C)n1 [OH-Atrazin, Hydroxyatrazin]              21

// sample CCNc1nc(Cl)nc(NCC)n1 , its I 50 ng/ml (a) was 18

For reference, reported I 50 ng/ml (a) for CCNc1nc(Cl)nc(N(CC)CC)n1 stands at 4

compound CCNc1nc(Cl)nc(NC(C)(C)C)n1 , I 50 ng/ml (a) observed: 9

For reference, reported I 50 ng/ml (a) for CCNc1nc(NC(C)C)nc(SC)n1 stands at 9
